# Test system: MDA-MB-231
# assay_details: Antiproliferative activity against human MDA-MB-231 cells measured after 24 hrs by MTT assay
# Format: functional, cell-based
# cond: MDA-MB-231, 24 h
Where a SMILES comes first, the peptide text is derived from it. [ ]: non-standard residue; d: D form. The star is where a group is joined. Decanoyl = CCCCCCCCCC(=O)*; Aib = CC(C)(N)C(=O)O; βAla = NCCC(=O)O
Here the recorded IC50 is given for each entry.

The cases that follow already have their IC50 on record.
{"compound": "CCCCCCCCCC(=O)NC(C)(C)C(=O)N1CCC[C@H]1C(=O)NC(C)(C)C(=O)NC(C)(C)C(=O)N1CCC[C@H]1C(=O)NC(C)(C)C(=O)NC(C)(C)C(=O)N1CCC[C@H]1C(=O)N[C@@H](C)C(=O)NC(C)(C)C(=O)NCCC(=O)N[C@@H](C)C(=O)NC(C)(C)C(=O)NC(C)(C)C(=O)NCCC(=O)NC(C)(C)C(=O)NC(C)(C)C(=O)NC(C)(C)C(=O)N[C@@H](C)C(=O)NCCC(=O)O (Decanoyl-[Aib]P[Aib][Aib]P[Aib][Aib]PA[Aib][βAla]A[Aib][Aib][βAla][Aib][Aib][Aib]A[βAla]-OH)", "value_measured": "9.2 µM"}
{"compound": "CCCCCCCCCC(=O)NC(C)(C)C(=O)N1CCC[C@H]1C(=O)NC(C)(C)C(=O)NC(C)(C)C(=O)N1CCC[C@H]1C(=O)NC(C)(C)C(=O)NC(C)(C)C(=O)N1CCC[C@H]1C(=O)NC(C)(C)C(=O)NC(C)(C)C(=O)NCCC(=O)N[C@@H](C)C(=O)NC(C)(C)C(=O)NC(C)(C)C(=O)NCCC(=O)NC(C)(C)C(=O)NC(C)(C)C(=O)NC(C)(C)C(=O)N[C@@H](C)C(=O)NCCC(=O)O (Decanoyl-[Aib]P[Aib][Aib]P[Aib][Aib]P[Aib][Aib][βAla]A[Aib][Aib][βAla][Aib][Aib][Aib]A[βAla]-OH)", "value_measured": "8.2 µM"}
{"compound": "COc1cccc2c1[C@H](OC)[C@]13O[C@@]1(C2=O)[C@H](O)[C@H](C)[C@@](O)(C(=O)[C@@H]1O[C@H]1C)[C@@H]3O", "value_measured": "0.6 µM"}

# next compound below
Query: Entry CCCCCCCCCCCC(=O)NC(C)(C)C(=O)N1CCC[C@H]1C(=O)NC(C)(C)C(=O)NC(C)(C)C(=O)N1CCC[C@H]1C(=O)NC(C)(C)C(=O)NC(C)(C)C(=O)N1CCC[C@H]1C(=O)N[C@@H](C)C(=O)NC(C)(C)C(=O)NCCC(=O)N[C@@H](C)C(=O)NC(C)(C)C(=O)NC(C)(C)C(=O)NCCC(=O)NC(C)(C)C(=O)NC(C)(C)C(=O)NC(C)(C)C(=O)N[C@@H](C)C(=O)NCCC(=O)O : reported IC50 = ?
Result: 1.5 µM
